We begin with a simple list: items and their reported log10 of TGI.
Test system: BT-549 breast
Experiment Summary: NCI tumour cell line growth inhibition, 48 h
Short version: log10 scale, TGI, µM.

# annotated cases, reported log10 of TGI shown
| Molecule | log10 of TGI |
| --- | --- |
| COc1cc(-c2nn(-c3cccc(NC(=O)c4cccc(C(F)(F)F)c4)c3)cc2-c2ccncc2)ccc1Cl | 1.67 |
| NNC(=O)COc1nc(-c2cccs2)nc2ccc(I)cc12 | 1.59 |
| CCNc1nc(-c2ccc(Cl)c(OC)c2)c(-c2ccnc(NCCNS(=O)(=O)c3ccc(Cl)cc3)n2)s1 | 1.58 |

Consider the molecule COC1=C(C)C(=O)C2=C(C1=O)C1C3CC4=C(C(=O)C(OC)=C(C)C4=O)C(CNC(=O)C(C)=O)N3C(C#N)C(C2)N1C (configuration not stated) and give its measured log10 of TGI. -2.77

# input molecule: CC(C)c1nc(Cl)c(Cl)c(Cl)n1 ; wanted: its log10 of TGI 1.43

Quick one: log10 of TGI for CC(=O)Nc1ccc(C(=O)COc2cccc(/C=C3\CCc4ccccc4C3=O)c2)cc1 ? 1.73

Quick check: log10 of TGI of Cc1c(-c2ccc(N3CCc4cccc(C(=O)Nc5nc6ccccc6s5)c4C3)nc2C(=O)O)cnn1CC12CC3CC(CC(C3)C1)C2 ? 1.21

Given CN1CCN(Cc2ccc(NC(=O)c3cncc(C#Cc4cnc5cccnn45)c3)cc2C(F)(F)F)CC1 , state its recorded log10 of TGI. 0.75

Consider the molecule shown here: COc1cc(/C=C/C(=O)c2c(-c3ccc(Cl)cc3)nc3sc(C)nn23)cc(OC)c1OC What is its recorded log10 of TGI? 1.89
